Data provenance is the NIST ThermoML archive (doi:10.1021/je0601208).

- protocolNotes: xn = mol fraction of the nth substance listed
- testConditions: 308.15 K, x1 = 0.6
Item-by-item account of surface tension liquid-gas
readoutName: surface tension liquid-gas (mN/m)

> print(dat)
                                   compound  measured
1     CCCCCC(=O)OCC [ethyl hexanoate] + CCO      23.7
2  CCCC(=O)OCCC(C)C [3-methylbutyl butanoate] + CCO      23.2
3   CCCCCCCC(=O)OCC [ethyl octanoate] + CCO      24.7
4  CC(=O)OCCC(C)C [3-methylbutyl ethanoate] + CCO      22.6
5  CCOC(=O)Cc1ccccc1 [ethyl phenylacetate] + CCO      28.6
6   CCOC(=O)c1ccccc1 [ethyl benzoate] + CCO      28.6

---

- protocolNotes: refractive index (Na D-line) (dimensionless); xn = mol fraction of the nth substance listed
- testConditions: 308.15 K; 100.5 kPa; Liquid; Standard Abbe refractometry; x1 = 0.2
Item-by-item account of refractive index
readoutName: refractive index

> print(dat)
                                   compound       readoutname  measured
1     CCCCCC(=O)OCC [ethyl hexanoate] + CCO  refractive index   1.37388
2   CCOC(=O)c1ccccc1 [ethyl benzoate] + CCO  refractive index   1.41131
3  CCCC(=O)OCCC(C)C [3-methylbutyl butanoate] + CCO  refractive index    1.3762
4  CC(=O)OCCC(C)C [3-methylbutyl ethanoate] + CCO  refractive index   1.36992
5   CCCCCCCC(=O)OCC [ethyl octanoate] + CCO  refractive index   1.38074
6  CCOC(=O)Cc1ccccc1 [ethyl phenylacetate] + CCO  refractive index   1.41093

---

- protocolNotes: refractive index (Na D-line) (dimensionless); xn = mol fraction of the nth substance listed
- testConditions: 308.15 K; 100.5 kPa; Liquid; Standard Abbe refractometry; x1 = 0.95
Numbers after ± are expanded uncertainties.
readoutName: refractive index

> print(dat)
                                   compound           measured
1   CCOC(=O)c1ccccc1 [ethyl benzoate] + CCO  1.49565 ± 0.00032
2  CCOC(=O)Cc1ccccc1 [ethyl phenylacetate] + CCO   1.4881 ± 0.00033
3     CCCCCC(=O)OCC [ethyl hexanoate] + CCO  1.39972 ± 0.00032
4   CCCCCCCC(=O)OCC [ethyl octanoate] + CCO  1.41047 ± 0.00033
5  CC(=O)OCCC(C)C [3-methylbutyl ethanoate] + CCO  1.39284 ± 0.00034
6  CCCC(=O)OCCC(C)C [3-methylbutyl butanoate] + CCO  1.40296 ± 0.00033

---

Item-by-item account of surface tension liquid-gas
- protocolNotes: xn = mol fraction of the nth substance listed
- testConditions: 288.15 K, x1 = 0.8
readoutName: surface tension liquid-gas (mN/m)

> print(dat)
                                   compound                 readoutname  unittag  measured
1  CC(=O)OCCC(C)C [3-methylbutyl ethanoate] + CCO  surface tension liquid-gas     mN/m        25
2  CCCC(=O)OCCC(C)C [3-methylbutyl butanoate] + CCO  surface tension liquid-gas     mN/m      25.3
3     CCCCCC(=O)OCC [ethyl hexanoate] + CCO  surface tension liquid-gas     mN/m        26
4   CCCCCCCC(=O)OCC [ethyl octanoate] + CCO  surface tension liquid-gas     mN/m      26.8
5  CCOC(=O)Cc1ccccc1 [ethyl phenylacetate] + CCO  surface tension liquid-gas     mN/m      33.5
6   CCOC(=O)c1ccccc1 [ethyl benzoate] + CCO  surface tension liquid-gas     mN/m      32.9
